For each record, write down the corresponding TGI.
# Tested on: HCC-2998 colon
# procedureDetails: NCI tumour cell line growth inhibition, 48 h

Memo: CN1C(=O)CC(CC(=O)C2CCCCC2=O)CC1=O (centres undefined) , reported TGI: > 100 µM

Memo: `O=C(C#Cc1ccccc1)N1CCCCC1` , reported TGI: > 100 µM

Memo: O=C1C2Cc3ccccc3CN2C(=O)N1CN1CCCCC1 (centres undefined) , reported TGI: > 100 µM

Memo: `O=c1oc2c(Cl)cc(Cl)cc2cc1-c1cn2c(n1)sc1ccccc12` , reported TGI: 95 µM

###

For each record, write down the corresponding TGI.
# Test system: HCT-15 colon
# procedureDetails: NCI tumour cell line growth inhibition, 48 h

Memo: COc1c(C(=O)CC2c3c(cc4oc(C)cc(=O)c4c3OC)OC(=N)C2c2nc3ccccc3[nH]2)c(O)c(OC)c2occc12 (stereo not given) , reported TGI: > 100 µM

Memo: `O=Cc1cc2sc(C=O)cc2s1` , reported TGI: > 100 µM

Memo: `O=C1/C(=C/Cc2ccco2)N=C(c2ccccc2)N1c1nc2ccc(Sc3ccccc3)cc2[nH]1` , reported TGI: > 100 µM

Memo: CCOP(=O)(OCC)C(Cc1cn(S(=O)(=O)c2ccc(C)cc2)cn1)C(=O)O (stereo not given) , reported TGI: > 100 µM

Memo: `O=C(Nc1c(Cl)cccc1Cl)Oc1cccc2cccnc12` , reported TGI: > 100 µM

###

For each record, write down the corresponding TGI.
# Test system: 786-0 renal
# procedureDetails: NCI tumour cell line growth inhibition, 48 h

Memo: `CC(=O)OCc1cc[c]([Hg][Cl])o1` , reported TGI: 13.2 µM

Memo: `Cc1cc(C(=O)NOCCO)c(Nc2ccc(I)cc2F)n(C)c1=O` , reported TGI: > 100 µM

Memo: `C=c1c2ccccc2oc2nc3[nH]c(N)c(C#N)c(N)c3c(=N)c12` , reported TGI: > 100 µM

Memo: `Nc1ccc(Oc2ccc(C34CC5CC(C3)CC(c3ccc(Oc6ccc(N)c(O)c6)cc3)(C5)C4)cc2)cc1O` , reported TGI: > 46 µM

Memo: `C#CCN(Cc1ccc2nc(-c3ccccc3)c(Cl)nc2c1)c1ccc(Cl)c(Cl)c1` , reported TGI: > 100 µM

Memo: `CCCCCCCN(CCCCCCC)C(=N)c1ccc(OC)c2ccccc12` , reported TGI: 2.95 µM

Memo: `O=C(NNC(=O)c1ccccc1O)c1cccs1` , reported TGI: > 100 µM

Memo: CCCCCCCCCCCCCC(=O)OCC1OC(=O)C(O)C1O (configuration not stated) , reported TGI: > 100 µM

Memo: `Nc1[nH]c(=S)[nH]c(=O)c1N=Nc1c(Br)cc(S(N)(=O)=O)cc1Br` , reported TGI: > 100 µM

Memo: `Cn1c(=Nc2ccccc2[N+](=O)[O-])sc2ccccc21` , reported TGI: > 100 µM

Memo: `Clc1cc2ns[s+]c2cc1Cl` , reported TGI: > 100 µM

Memo: `COC(=O)C1=C(C(=O)OC)SC2(S1)C(C(=O)OC)=C(C(=O)OC)Sc1c2ssc1=O` , reported TGI: 1.21 µM

###

For each record, write down the corresponding GI50.
# Tested on: OVCAR-3 ovarian
# procedureDetails: NCI tumour cell line growth inhibition, 48 h

Memo: `CCCCCCCC(=O)[O-].N.N.N.N.N.[Co+3].[O-][Cl+3]([O-])([O-])[O-]` , reported GI50: > 100000 nM

Memo: Nc1nc(N)c2c(n1)NC(c1ccc(Cl)cc1)C1CCc3ccccc3C1=N2 (centres undefined) , reported GI50: 6460 nM

Memo: `c1ccc(OCC[P+](c2ccccc2)(c2ccccc2)c2ccccc2)cc1` , reported GI50: 1110 nM

Memo: `CCCCCCCN(CCCCCCC)C(=N)c1ccc(OC)c2ccccc12` , reported GI50: 1600 nM
